Give measured IC50 for each item. Keep answers brief.
# System: Leishmania donovani
# method-notes: Antileishmanial activity against amastigote stage of Leishmania donovani infected in mouse J774A.1 cells assessed as intracellular parasite growth inhibition after 72 hrs by luciferase reporter gene assay
# Type: functional, organism-based
# assay-setup: J774.A1, 72 h
Give bare numbers, in nM.

Reference set, count: 3
- molecule: "Cc1cc(NCc2ccccc2)nc(Nc2ccc(OCCCCCOc3ccc(Nc4nc(C)cc(NCc5ccccc5)n4)cc3)cc2)n1"
  measurement-type: "IC50"
  unit-of-measurement: "nM"
  reported-result: 1670
- molecule: "COc1ccc(CNc2cc(C)nc(Nc3ccc(OCCCCCOc4ccc(Nc5nc(C)cc(NCc6ccc(OC)cc6)n5)cc4)cc3)n2)cc1"
  measurement-type: "IC50"
  unit-of-measurement: "nM"
  reported-result: 570
- molecule: "Cc1cc(N2CCN(C)CC2)nc(Nc2ccc(OCCCCCOc3ccc(Nc4nc(C)cc(N5CCN(C)CC5)n4)cc3)cc2)n1"
  measurement-type: "IC50"
  unit-of-measurement: "nM"
  reported-result: 810

Look at each molecule and report its IC50.
1. Cc1cc(N2CCOCC2)nc(Nc2ccc(OCCCCCOc3ccc(Nc4nc(C)cc(N5CCOCC5)n4)cc3)cc2)n1
2. Cc1cc(NC2CC2)nc(Nc2ccc(OCCCCCOc3ccc(Nc4nc(C)cc(NC5CC5)n4)cc3)cc2)n1
3. Cc1cc(NC2CCCC2)nc(Nc2ccc(OCCCCCOc3ccc(Nc4nc(C)cc(NC5CCCC5)n4)cc3)cc2)n1
4. Cc1cc(N2CCN(c3ccccc3)CC2)nc(Nc2ccc(OCCCCCOc3ccc(Nc4nc(C)cc(N5CCN(c6ccccc6)CC5)n4)cc3)cc2)n1
5. Cc1cc(NCc2ccc(F)cc2)nc(Nc2ccc(OCCCCCOc3ccc(Nc4nc(C)cc(NCc5ccc(F)cc5)n4)cc3)cc2)n1

Marked response:
1180
420
1530
1720
1410

Look at each molecule and report its IC50.
1. O=C(/C=C/c1ccc(OCCCCCOc2ccc(/C=C/C(=O)c3ccccc3)cc2)cc1)c1ccccc1
2. N=C(N)c1ccc(OCCCCCOc2ccc(C(=N)N)cc2)cc1 [PENTAMIDINE]
3. Nc1nc(-c2ccccc2)cc(-c2ccc(OCCCCCOc3ccc(-c4cc(-c5ccccc5)nc(N)n4)cc3)cc2)n1

Marked response:
1650
20400
960

Look at each molecule and report its IC50.
1. COc1ccc(C(=O)/C=C/c2ccc(OCCCCCOc3ccc(C=O)cc3)cc2)cc1OC
2. CCN1CCN(c2cc(C)nc(Nc3ccc(OCCCCCOc4ccc(Nc5nc(C)cc(N6CCN(CC)CC6)n5)cc4)cc3)n2)CC1

Marked response:
1: 28400; 2: 300
